Test system: Aspergillus nidulans (IAM 2006)_astA
Experiment notes: maximal culture density with compound as sole sulfur source (OD600); higher = better growth
Cond: sulfur source concentration 200 µM; S. cerevisiae S288C/BY sul1Δ sul2Δ soa1Δ with transporter ortholog inserted at SOA1 locus; sulfur-free B medium, 4% glucose, pH 6.5, sole sulfur source
Structures can show the parent of a compound that is named as a salt.
Kindly supply the reported maximal culture density values for the records listed here.
Give the value as a plain number.

According to the records, this compound CCCS(=O)(=O)O [Propanesulfonate] displays maximal culture density of 0.486

According to the records, this compound O=S(=O)(O)CO [Hydroxymethane sulfonate] displays maximal culture density of 1.6

According to the records, this compound CCCCS(=O)(=O)O [Butanesulfonate] displays maximal culture density of 0.596

According to the records, this compound C[N+](C)(C)CCOS(=O)(=O)[O-] [Choline sulfate] displays maximal culture density of 1.61

According to the records, this compound O=S(O)O displays maximal culture density of 1.6

====

System: Ogataea parapolymorpha_XP_013936897
Experiment notes: maximal growth rate with compound as sole sulfur source (OD600 per h); higher = better growth / uptake of the sulfur source
Cond: sulfur source concentration 200 µM; S. cerevisiae S288C/BY sul1Δ sul2Δ soa1Δ with transporter ortholog inserted at SOA1 locus; sulfur-free B medium, 4% glucose, pH 6.5, sole sulfur source
Structures can show the parent of a compound that is named as a salt.
Short version: maximal growth rate at least 0.005 is T, less is F.

# check: maximal growth rate of N[C@@H](CS(=O)(=O)O)C(=O)O is greater than or equal to 0.005 T

# check: maximal growth rate of O=S(O)O is greater than or equal to 0.005 F

# check: maximal growth rate of CSCC[C@H](N)C(=O)O is greater than or equal to 0.005 T

# check: maximal growth rate of NCCS(=O)(=O)O is greater than or equal to 0.005 F

# check: maximal growth rate of C[N+](C)(C)CCOS(=O)(=O)[O-] [Choline sulfate] is greater than or equal to 0.005 F

# check: maximal growth rate of O=C(O)CS(=O)(=O)O is greater than or equal to 0.005 F

# check: maximal growth rate of O=S(=O)(O)O [sulfate] is greater than or equal to 0.005 F

====

Test system: Saccharomyces uvarum_SOA2
Experiment notes: maximal culture density with compound as sole sulfur source (OD600); higher = better growth
Cond: sulfur source concentration 200 µM; S. cerevisiae S288C/BY sul1Δ sul2Δ soa1Δ with transporter ortholog inserted at SOA1 locus; sulfur-free B medium, 4% glucose, pH 6.5, sole sulfur source
Counter-ions that a name gives are not always drawn.
Readout kind: maximal culture density
Give the value as a plain number.

According to the records, this compound CCCCS(=O)(=O)O [Butanesulfonate] displays maximal culture density of 1.71

According to the records, this compound O=C(O)CS(=O)(=O)O [Sulfoacetic acid] displays maximal culture density of 1.01

According to the records, this compound C[N+](C)(C)CCOS(=O)(=O)[O-] [Choline sulfate] displays maximal culture density of 0.237

According to the records, this compound CCCS(=O)(=O)O [Propanesulfonate] displays maximal culture density of 1.69

According to the records, this compound O=S(=O)(O)CO [Hydroxymethane sulfonate] displays maximal culture density of 1.73

====

Test system: Metarhizium robertsii_XP_007822519
Experiment notes: maximal culture density with compound as sole sulfur source (OD600); higher = better growth
Cond: sulfur source concentration 200 µM; S. cerevisiae S288C/BY sul1Δ sul2Δ soa1Δ with transporter ortholog inserted at SOA1 locus; sulfur-free B medium, 4% glucose, pH 6.5, sole sulfur source
Counter-ions that a name gives are not always drawn.
Readout kind: maximal culture density
Give the value as a plain number.

According to the records, this molecule O=C(O)CS(=O)(=O)O displays maximal culture density of 0.282

According to the records, this molecule CCS(=O)(=O)O [Ethanesulfonate] displays maximal culture density of 1.6

According to the records, this molecule CCCCS(=O)(=O)O [Butanesulfonate] displays maximal culture density of 0.261

According to the records, this molecule NCCS(=O)(=O)O displays maximal culture density of 0.213

According to the records, this molecule O=S(=O)(O)O [sulfate] displays maximal culture density of 0.186

According to the records, this molecule CCCS(=O)(=O)O [Propanesulfonate] displays maximal culture density of 1.88

According to the records, this molecule O=S(O)O displays maximal culture density of 1

According to the records, this molecule O=S(=O)(O)CCO [Isethionate] displays maximal culture density of 1.59

According to the records, this molecule CSCC[C@H](N)C(=O)O displays maximal culture density of 1.59

According to the records, this molecule C[N+](C)(C)CCOS(=O)(=O)[O-] [Choline sulfate] displays maximal culture density of 0.238

According to the records, this molecule O=S(=O)(O)CO [Hydroxymethane sulfonate] displays maximal culture density of 1.59

According to the records, this molecule N[C@@H](CS(=O)(=O)O)C(=O)O displays maximal culture density of 1.38

====

Test system: Aspergillus nidulans_CBF74694
Experiment notes: maximal growth rate with compound as sole sulfur source (OD600 per h); higher = better growth / uptake of the sulfur source
Cond: sulfur source concentration 200 µM; S. cerevisiae S288C/BY sul1Δ sul2Δ soa1Δ with transporter ortholog inserted at SOA1 locus; sulfur-free B medium, 4% glucose, pH 6.5, sole sulfur source
Where a name gives a salt, the structure may show the parent alone.
Readout kind: maximal growth rate
Give the value as a plain number.

According to the records, this molecule O=S(=O)(O)O [sulfate] displays maximal growth rate of 0.00273

According to the records, this molecule O=S(=O)(O)CCO [Isethionate] displays maximal growth rate of 0.00301

According to the records, this molecule C[N+](C)(C)CCOS(=O)(=O)[O-] [Choline sulfate] displays maximal growth rate of 0.00254

According to the records, this molecule O=S(O)O displays maximal growth rate of 0.00286

According to the records, this molecule CCCCS(=O)(=O)O [Butanesulfonate] displays maximal growth rate of 0.00269

====

Test system: Aspergillus nidulans_XP_681611
Experiment notes: maximal growth rate with compound as sole sulfur source (OD600 per h); higher = better growth / uptake of the sulfur source
Cond: sulfur source concentration 200 µM; S. cerevisiae S288C/BY sul1Δ sul2Δ soa1Δ with transporter ortholog inserted at SOA1 locus; sulfur-free B medium, 4% glucose, pH 6.5, sole sulfur source
Structures can show the parent of a compound that is named as a salt.
Readout kind: maximal growth rate
Give the value as a plain number.

According to the records, this molecule O=S(=O)(O)O [sulfate] displays maximal growth rate of 0.00615

According to the records, this molecule CCS(=O)(=O)O [Ethanesulfonate] displays maximal growth rate of 0.00641

According to the records, this molecule NCCS(=O)(=O)O displays maximal growth rate of 0.0063

According to the records, this molecule CCCCS(=O)(=O)O [Butanesulfonate] displays maximal growth rate of 0.00666

According to the records, this molecule N[C@@H](CS(=O)(=O)O)C(=O)O displays maximal growth rate of 0.00678

According to the records, this molecule CSCC[C@H](N)C(=O)O displays maximal growth rate of 0.142

According to the records, this molecule O=S(=O)(O)CO [Hydroxymethane sulfonate] displays maximal growth rate of 0.00603

According to the records, this molecule C[N+](C)(C)CCOS(=O)(=O)[O-] [Choline sulfate] displays maximal growth rate of 0.0057

According to the records, this molecule CCCS(=O)(=O)O [Propanesulfonate] displays maximal growth rate of 0.00692

According to the records, this molecule O=S(O)O displays maximal growth rate of 0.00588

According to the records, this molecule O=S(=O)(O)CCO [Isethionate] displays maximal growth rate of 0.00854

According to the records, this molecule O=C(O)CS(=O)(=O)O displays maximal growth rate of 0.00636

====

Test system: Metarhizium robertsii_XP_007823832
Experiment notes: maximal growth rate with compound as sole sulfur source (OD600 per h); higher = better growth / uptake of the sulfur source
Cond: sulfur source concentration 200 µM; S. cerevisiae S288C/BY sul1Δ sul2Δ soa1Δ with transporter ortholog inserted at SOA1 locus; sulfur-free B medium, 4% glucose, pH 6.5, sole sulfur source
Where a name gives a salt, the structure may show the parent alone.
Readout kind: maximal growth rate
Give the value as a plain number.

According to the records, this molecule NCCS(=O)(=O)O displays maximal growth rate of 0.0141

According to the records, this molecule O=S(=O)(O)CCO [Isethionate] displays maximal growth rate of 0.0144

According to the records, this molecule O=S(=O)(O)CO [Hydroxymethane sulfonate] displays maximal growth rate of 0.038

According to the records, this molecule O=S(=O)(O)O [sulfate] displays maximal growth rate of 0.0813

According to the records, this molecule O=C(O)CS(=O)(=O)O displays maximal growth rate of 0.0177

According to the records, this molecule O=S(O)O displays maximal growth rate of 0.0855

According to the records, this molecule N[C@@H](CS(=O)(=O)O)C(=O)O displays maximal growth rate of 0.028

According to the records, this molecule CCS(=O)(=O)O [Ethanesulfonate] displays maximal growth rate of 0.0141

According to the records, this molecule C[N+](C)(C)CCOS(=O)(=O)[O-] [Choline sulfate] displays maximal growth rate of 0.0809

According to the records, this molecule CSCC[C@H](N)C(=O)O displays maximal growth rate of 0.138

According to the records, this molecule CCCS(=O)(=O)O [Propanesulfonate] displays maximal growth rate of 0.0143

According to the records, this molecule CCCCS(=O)(=O)O [Butanesulfonate] displays maximal growth rate of 0.0152
